Test system: MOLT-4
Assay: Cell viability (CellTiter Glo), compressed perturbation pools with informed pool design, MAX-based deconvolution, MOLT-4
Settings: MOLT-4; compressed perturbation pools, informed pool design; MAX-based deconvolution
quantity name: DRS, MOLT-4, MAX
Give a plain numeric answer without units written out.

Item COc1cc2ncnc(Nc3ccc(F)c(Cl)c3)c2cc1OCCCN1CCOCC1 has what recorded DRS, MOLT-4, MAX? 0.00

Item CO[C@H]1C[C@@H]2CC[C@@H](C)[C@@](O)(O2)C(=O)C(=O)N2CCCC[C@H]2C(=O)O[C@H]([C@H](C)C[C@@H]2CC[C@@H](OCCO)[C@H](OC)C2)CC(=O)[C@H](C)/C=C(\C)[C@@H](O)[C@@H](OC)C(=O)[C@H](C)C[C@H](C)/C=C/C=C/C=C/1C has what recorded DRS, MOLT-4, MAX? 2.51

Item C#Cc1cccc(Nc2ncnc3cc(OCCOC)c(OCCOC)cc23)c1 has what recorded DRS, MOLT-4, MAX? 0.00

Item O=C(/C=C/c1cccc(S(=O)(=O)Nc2ccccc2)c1)NO has what recorded DRS, MOLT-4, MAX? 21.41

Item CC(C)C[C@H](NC(=O)[C@H](Cc1ccccc1)NC(=O)c1cnccn1)B(O)O has what recorded DRS, MOLT-4, MAX? 28.24

Item C=CC(=O)Nc1cc(Nc2nccc(-c3cn(C)c4ccccc34)n2)c(OC)cc1N(C)CCN(C)C has what recorded DRS, MOLT-4, MAX? 0.00

Item COc1cc(OC)cc(N(CCNC(C)C)c2ccc3ncc(-c4cnn(C)c4)nc3c2)c1 has what recorded DRS, MOLT-4, MAX? 3.88

----------
Test system: co-culture of three cancer cell lines
Test: Cell viability (CellTiter Glo) of compressed target pools, co-cultures of three cell lines (Target Compression)
Format: cell-based
Settings: 5 Pick 3, Pool 4 (REH, CCRF-CFM, MOLT-4)
Please go through the items and note down their DRS of pool.
Give a plain numeric answer without units written out.

Item N#Cc1ccnc(N2C(=O)CC[C@H]2C(=O)N(c2cncc(F)c2)[C@H](C(=O)NC2CC(F)(F)C2)c2ccccc2Cl)c1 [Ivosidenib] has what recorded DRS of pool? 0.63

Item Cc1[nH]c2ccccc2c1CCNCc1ccc(/C=C/C(=O)NO)cc1 [Panobinostat] has what recorded DRS of pool? 15.81

Item CC1(C)CCC(CN2CCN(c3ccc(C(=O)NS(=O)(=O)c4ccc(NCC5CCOCC5)c([N+](=O)[O-])c4)c(Oc4cnc5[nH]ccc5c4)c3)CC2)=C(c2ccc(Cl)cc2)C1 [Venetoclax] has what recorded DRS of pool? 2.70

Item COc1c(OCCCN2CCOCC2)ccc2c1N=C(NC(=O)c1cnc(N)nc1)N1CCN=C21 [Copanlisib] has what recorded DRS of pool? 13.21

----------
System: REH
Assay: Cell viability (CellTiter Glo), compressed perturbation pools with informed pool design, MAX-based deconvolution, REH;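 note: higher DRS means a larger drug effect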
Conditions: REH, Samples, 7 Pick 3 informed perturbation pools
Method: Total cell viability was measured for each sample using an ATP-based luminescence assay (i.e., CellTiter Glo). […] Each cancer drug was cultured with target cells individually. At the end of the screen, samples were either analyzed individually or compressed into pools for analysis. […] After cell viability measurement and DRS calculation, the DRS of each cancer drug in the samples generated based on the pools were deconvoluted and compared to the DRS for each cancer drug measured individually. […]
quantity name: DRS from MAX-based deconvolution
Give a plain numeric answer without units written out.

Item NC(=O)c1cccc2cn(-c3ccc([C@@H]4CCCNC4)cc3)nc12 has what recorded DRS from MAX-based deconvolution? 5.23

Item CC/C(=C(\c1ccccc1)c1ccc(OCCN(C)C)cc1)c1ccccc1 has what recorded DRS from MAX-based deconvolution? 0.00

Item Cc1ccc(Nc2nccc(N(C)c3ccc4c(C)n(C)nc4c3)n2)cc1S(N)(=O)=O has what recorded DRS from MAX-based deconvolution? 4.01

Item CNC(=O)c1ccc(N2C(=S)N(c3cnc(C#N)c(C(F)(F)F)c3)C(=O)C23CCC3)cc1F [Apalutamide] has what recorded DRS from MAX-based deconvolution? 0.00

Item CC1(C)CCC(CN2CCN(c3ccc(C(=O)NS(=O)(=O)c4ccc(NCC5CCOCC5)c([N+](=O)[O-])c4)c(Oc4cnc5[nH]ccc5c4)c3)CC2)=C(c2ccc(Cl)cc2)C1 has what recorded DRS from MAX-based deconvolution? 0.00

Item COc1c(OCCCN2CCOCC2)ccc2c1N=C(NC(=O)c1cnc(N)nc1)N1CCN=C21 has what recorded DRS from MAX-based deconvolution? 2.12

Item CC(C)C[C@H](NC(=O)CNC(=O)c1cc(Cl)ccc1Cl)B(O)O has what recorded DRS from MAX-based deconvolution? 0.00

Item CO[C@H]1C[C@@H]2CC[C@@H](C)[C@@](O)(O2)C(=O)C(=O)N2CCCC[C@H]2C(=O)O[C@H]([C@H](C)C[C@@H]2CC[C@@H](OCCO)[C@H](OC)C2)CC(=O)[C@H](C)/C=C(\C)[C@@H](O)[C@@H](OC)C(=O)[C@H](C)C[C@H](C)/C=C/C=C/C=C/1C has what recorded DRS from MAX-based deconvolution? 0.00

Item COc1cc2nccc(Oc3ccc(NC(=O)NC4CC4)c(Cl)c3)c2cc1C(N)=O has what recorded DRS from MAX-based deconvolution? 0.00

Item Cc1c(C(=O)Nc2ccc(N3C[C@@H](C)O[C@@H](C)C3)nc2)cccc1-c1ccc(OC(F)(F)F)cc1 has what recorded DRS from MAX-based deconvolution? 3.57

Item CNC(=O)c1cc(Oc2ccc(NC(=O)Nc3ccc(Cl)c(C(F)(F)F)c3)cc2)ccn1 has what recorded DRS from MAX-based deconvolution? 0.00

Item C=C(c1ccc(C(=O)O)cc1)c1cc2c(cc1C)C(C)(C)CCC2(C)C has what recorded DRS from MAX-based deconvolution? 5.97

Item O=C(c1ccc(F)c(F)c1Nc1ccc(I)cc1F)N1CC(O)([C@@H]2CCCCN2)C1 has what recorded DRS from MAX-based deconvolution? 0.00

Item COC(=O)N[C@@H](C)CNc1nccc(-c2cn(C(C)C)nc2-c2cc(Cl)cc(NS(C)(=O)=O)c2F)n1 has what recorded DRS from MAX-based deconvolution? 0.00

Item CN(C)C(=O)c1cc2cnc(Nc3ccc(N4CCNCC4)cn3)nc2n1C1CCCC1 has what recorded DRS from MAX-based deconvolution? 14.44
